Tested on: MDA-N
method_notes: NCI tumour cell line growth inhibition, 48 h
Activity calls are given as the source filed them. No stated cut-off is given here; in the data, active = GI50 up to about 1.1 µM and inactive = higher. Non-standard residues stand in square brackets, D forms with d. Residues, ends and D or L forms follow the SMILES beside them. *: point of attachment. Ac5c = NC1(C(=O)O)CCCC1; Boc = CC(C)(C)OC(=O)*; tBu = CC(C)(C)*
endpoint: GI50

Requested field: GI50. Item: "O=C(O)c1cccc(F)c1C(=O)c1ccc2ccccc2c1"
> 100 µM (inactive)

Please do the same for "Cc1cn([C@@H]2C[C@@H]2CO)c(=O)[nH]c1=O" as well.
> 100 µM (inactive)

Please do the same for CC(OC(C)(C)C)C(NC(=O)C(CCCCNC(=O)OC(C)(C)C)NC(=O)C(Cc1c[nH]c2ccccc12)NC(=O)C(N)Cc1ccccc1)C(=O)NC(Cc1ccccc1)C(=O)NC1(C(=O)O)CCCC1 (stereo unspecified) (H-FWK(Boc)T(tBu)F[Ac5c]-OH; configuration not given here) as well.
> 100 µM (inactive)

Please do the same for "O=C(c1cc(Cl)ccc1Cl)N1CCN(c2cccc(Cl)c2)CC1" as well.
1.87 µM (inactive)

Please do the same for "c1ccc(CSc2nnc3c4ccccc4c4ccccc4c3n2)cc1" as well.
56.1 µM (inactive)

Please do the same for "O=c1c2c3c(sc2nc2n1sc1nc4sc5c(c4c(=O)n12)CCCC5)CCCC3" as well.
> 51.3 µM (inactive)

From: ChEMBL document CHEMBL1201862
